This collection of values is drawn from paper PMC9404985.

In this section, each of the molecules is paired with its reported pEC50.
# Test system: P. aeruginosa (CCUG #17619)
# EXPERIMENT_SUMMARY: Antibacterial activity against isolates (Omnilog, Biolog redox dye)
# Format: cell-based, Pseudomonas aeruginosa
# EXPERIMENTAL_SETUP: Pseudomonas aeruginosa, CCUG17619; ca-MH broth, 24 h, 37 °C
# Method: The antibacterial activities of eight compounds (1, 3, 4, 6, 8, 10, 16, and 17) were tested against 10 different isolates of Gram-negative bacteria from human and other sources, two E. coli (CCUG #67180 and CCUG #17620/ATCC #25922, control strain), two K. pneumoniae (CCUG #58547 and CCUG #225T), two P. aeruginosa (CCUG #17619 and CCUG #59347), two A. baumannii (CCUG #57035 and CCUG #57250), E. cloacae (CCUG #6323T), and E. hormaechei (CCUG #58962) in a 96-well plate format. […]
pEC50 is defined as minus the log10 of a concentration measured in mol/L.

// query Endpoint output: pEC50 of N=C(N)Nc1ccc(-c2ccc(C(=O)N3CCc4cc(NC(=N)N)ccc43)o2)cc1 [Compound 17] . Value?
// result 4.64

====

# Tested on: B. subtilis (NBRC/ATCC #111470)
# EXPERIMENT_SUMMARY: Antibacterial resazurin assay, laboratory strain
# EXPERIMENTAL_SETUP: Bacillus subtilis, ATCC111470, 18 h, read-out: Bsu EC90
MEASURE_NAME: EC90 (µM)
Form entry: value (µM) — number only.

// query Endpoint output: EC90 of Cc1cc(NC(=N)N)ccc1-c1ccc(-c2ccc(NC(=N)N)cc2C)o1 . Value?
// result 8.5

// query Endpoint output: EC90 of N=C(N)Nc1ccc2c(c1)CCN2C(=O)c1ccc(-c2ccc(NC(=N)N)cc2C(F)(F)F)o1 . Value?
// result 13.6

// query Endpoint output: EC90 of N=C(N)Nc1ccc2c(c1)CCN2C(=O)c1ccc(-c2ccccc2Cl)o1 . Value?
// result 25.9

// query Endpoint output: EC90 of N#Cc1cc(NC(=N)N)ccc1-c1ccc(-c2ccc(NC(=N)N)cc2C#N)o1 . Value?
// result 562

// query Endpoint output: EC90 of N=C(N)Nc1ccc(-c2ccc(-c3ccc(NC(=N)N)cc3)o2)cc1 . Value?
// result 22.5

// query Endpoint output: EC90 of N=C(N)Nc1ccc(-c2ccc(C(=O)N3CCc4ccccc43)o2)c(Cl)c1 . Value?
// result 38.4

====

# System: K. pneumoniae (CCUG #58547)
# EXPERIMENT_SUMMARY: Antibacterial activity against isolates (Omnilog, Biolog redox dye)
# Format: cell-based, Klebsiella pneumoniae
# EXPERIMENTAL_SETUP: Klebsiella pneumoniae, CCUG58547; ca-MH broth, 24 h, 37 °C
MEASURE_NAME: pEC50
pEC50 is defined as minus the log10 of a concentration measured in mol/L.

# annotated cases, reported pEC50 shown
# COMPOUND, MEASURE_NAME, EXPERIMENTAL_VALUE
records = [
    ("N=C(N)Nc1ccc(-c2ccc(-c3ccc(NC(=N)N)cc3)o2)cc1", "pEC50", 5.25),
    ("COc1cc(NC(=N)N)ccc1-c1ccc(-c2ccc(NC(=N)N)cc2OC)o1", "pEC50", 4.89),
    ("COC(=O)c1cc(NC(=N)N)ccc1-c1ccc(-c2ccc(NC(=N)N)cc2C(=O)OC)o1", "pEC50", 4.99),
    ("CO/N=C(\\C(=O)N[C@@H]1C(=O)N2C(C(=O)O)=C(COC(C)=O)CS[C@H]12)c1csc(N)n1 [CTX, Cefotaxime, reference compound]", "pEC50", 3.49),
    ("N=C(N)Nc1ccc(-c2ccc(-c3ccc(NC(=N)N)cc3Cl)o2)c(Cl)c1", "pEC50", 5.28),
    ("N=C(N)Nc1ccc(-c2ccc(C(=O)N3CCc4cc(NC(=N)N)ccc43)o2)c(Cl)c1", "pEC50", 4.89),
]

Attention now shifts to the item below.
// query Lab request: please report pEC50 under test system K. pneumoniae (CCUG #58547) for Cc1cc(NC(=N)N)ccc1-c1ccc(-c2ccc(NC(=N)N)cc2C)o1
// result 4.77
